Assay: Ex vivo biodistribution in Daudi xenograft-bearing mice
Settings: male, NOD.Cg-Rag1tm1Mom Il2rgtm1Wjl/SzJ (NRG), mouse, brain, iv, total radioactivity, Brain uptake, 1 h p.i., mean
Where a SMILES comes first, the peptide text is derived from it. Side-chain parts run from the residue outwards. [ ]: non-standard residue; d: D form. The star is where a group is joined. DOTA = O=C(O)CN1CCN(CC(=O)O)CCN(CC(=O)*)CCN(CC(=O)O)CC1; 2Nal = N[C@@H](Cc1ccc2ccccc2c1)C(=O)O; dNMeOrn = CN[C@H](CCCN)C(=O)O; 4Amb = NCc1ccc(C(=O)O)cc1
readout type: tissue uptake at 1 h (%ID/g)
Give bare numbers, in %ID/g.

Qu. // lookup tissue uptake at 1 h for CN1C(=O)[C@@H](Cc2ccc(O)cc2)NC(=O)CNC(=O)[C@H](Cc2ccc3ccccc3c2)NC(=O)[C@H](CCCNC(=N)N)NC(=O)[C@H]1CCCNC(=O)c1ccc(CNC(=O)CN2CCN(CC(=O)O)CCN(CC(=O)O)CCN(CC(=O)O)CC2)cc1 [[68Ga]Ga-Pentixafor, metal not drawn] (cyclo([dY][dNMeOrn]([4Amb-DOTA])R[2Nal]G))
Ans. 0.03
